# measurement.target: Tyrosine-protein kinase JAK1 (Homo sapiens, UniProt P23458)
# Sequence (P23458 whole entry): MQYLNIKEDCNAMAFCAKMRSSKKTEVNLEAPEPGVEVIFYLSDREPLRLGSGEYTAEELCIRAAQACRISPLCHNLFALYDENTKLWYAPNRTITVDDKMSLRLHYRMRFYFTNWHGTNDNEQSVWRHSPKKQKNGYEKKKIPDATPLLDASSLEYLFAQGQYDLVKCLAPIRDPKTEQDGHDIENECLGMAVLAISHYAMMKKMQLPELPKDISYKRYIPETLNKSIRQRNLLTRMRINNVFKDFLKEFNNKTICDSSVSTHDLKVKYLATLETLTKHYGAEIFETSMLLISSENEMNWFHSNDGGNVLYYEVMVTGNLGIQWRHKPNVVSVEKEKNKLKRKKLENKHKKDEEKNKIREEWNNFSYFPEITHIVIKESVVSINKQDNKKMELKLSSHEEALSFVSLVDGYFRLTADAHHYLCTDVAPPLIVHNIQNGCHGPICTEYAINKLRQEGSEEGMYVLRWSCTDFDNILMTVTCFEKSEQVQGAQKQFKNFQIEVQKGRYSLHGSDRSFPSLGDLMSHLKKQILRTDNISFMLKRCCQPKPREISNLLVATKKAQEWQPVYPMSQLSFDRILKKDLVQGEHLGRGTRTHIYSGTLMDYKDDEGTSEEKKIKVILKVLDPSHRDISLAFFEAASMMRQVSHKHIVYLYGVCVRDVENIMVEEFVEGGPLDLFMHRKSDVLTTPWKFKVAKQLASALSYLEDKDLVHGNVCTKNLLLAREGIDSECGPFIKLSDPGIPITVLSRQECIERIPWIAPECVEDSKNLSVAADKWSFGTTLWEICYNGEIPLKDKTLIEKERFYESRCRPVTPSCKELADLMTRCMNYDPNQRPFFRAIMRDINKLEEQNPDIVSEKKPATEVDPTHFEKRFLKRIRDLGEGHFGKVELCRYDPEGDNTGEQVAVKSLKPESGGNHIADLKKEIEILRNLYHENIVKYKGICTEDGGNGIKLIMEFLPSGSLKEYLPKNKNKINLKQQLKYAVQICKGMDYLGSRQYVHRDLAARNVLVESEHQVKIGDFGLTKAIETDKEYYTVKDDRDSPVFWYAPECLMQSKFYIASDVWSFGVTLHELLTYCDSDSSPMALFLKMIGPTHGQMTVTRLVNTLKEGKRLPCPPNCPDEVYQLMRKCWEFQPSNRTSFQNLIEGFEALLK
# protocol.details: JAK1 (PSTAT3 TF1) Alpha Screen Assay
measurement.kind: pEC50
// scale note: pEC50 = -log10(conc_M); give the bare number

COCc1cc(-c2cn(C)c3cnc(NC(C)=O)cc23)nc([C@]2(CO)CCOC2)c1; 4.98
CO[C@@]1(c2cc(C)cc(-c3cn(C)c4cnc(NC(N)=O)cc34)n2)CCOC1; 4.68
CO[C@@]1(c2cc(OCCO)cc(-c3cn(C)c4cnc(NC(C)=O)cc34)n2)CCOC1; 4.57
NC(=O)Nc1cc2c(-c3cccc(C4(O)COC4)n3)cn([C@@H]3CCOC3)c2cn1; 4.14

Lookup: # lookup: pEC50 of `COc1cc(-c2cn(C)c3cnc(NC(N)=O)cc23)nc([C@@]2(OC)CCOC2)c1`
Found: 4.82

Lookup: # lookup: pEC50 of CO[C@@]1(c2cc(C(F)F)cc(-c3cn([C@H]4CCOC4)c4cnc(NC(N)=O)cc34)n2)CCOC1 [US20190276450, Example 12b.3]
Found: 4.17

Lookup: # lookup: pEC50 of CO[C@@]1(c2cc(C(F)F)cc(-c3cn([C@@H]4CCOC4)c4cnc(NC(N)=O)cc34)n2)CCOC1 [US20190276450, Example 12b.2]
Found: 4.40

---

# measurement.target: Non-receptor tyrosine-protein kinase TYK2 (Homo sapiens, UniProt P29597)
# Sequence (P29597 whole entry): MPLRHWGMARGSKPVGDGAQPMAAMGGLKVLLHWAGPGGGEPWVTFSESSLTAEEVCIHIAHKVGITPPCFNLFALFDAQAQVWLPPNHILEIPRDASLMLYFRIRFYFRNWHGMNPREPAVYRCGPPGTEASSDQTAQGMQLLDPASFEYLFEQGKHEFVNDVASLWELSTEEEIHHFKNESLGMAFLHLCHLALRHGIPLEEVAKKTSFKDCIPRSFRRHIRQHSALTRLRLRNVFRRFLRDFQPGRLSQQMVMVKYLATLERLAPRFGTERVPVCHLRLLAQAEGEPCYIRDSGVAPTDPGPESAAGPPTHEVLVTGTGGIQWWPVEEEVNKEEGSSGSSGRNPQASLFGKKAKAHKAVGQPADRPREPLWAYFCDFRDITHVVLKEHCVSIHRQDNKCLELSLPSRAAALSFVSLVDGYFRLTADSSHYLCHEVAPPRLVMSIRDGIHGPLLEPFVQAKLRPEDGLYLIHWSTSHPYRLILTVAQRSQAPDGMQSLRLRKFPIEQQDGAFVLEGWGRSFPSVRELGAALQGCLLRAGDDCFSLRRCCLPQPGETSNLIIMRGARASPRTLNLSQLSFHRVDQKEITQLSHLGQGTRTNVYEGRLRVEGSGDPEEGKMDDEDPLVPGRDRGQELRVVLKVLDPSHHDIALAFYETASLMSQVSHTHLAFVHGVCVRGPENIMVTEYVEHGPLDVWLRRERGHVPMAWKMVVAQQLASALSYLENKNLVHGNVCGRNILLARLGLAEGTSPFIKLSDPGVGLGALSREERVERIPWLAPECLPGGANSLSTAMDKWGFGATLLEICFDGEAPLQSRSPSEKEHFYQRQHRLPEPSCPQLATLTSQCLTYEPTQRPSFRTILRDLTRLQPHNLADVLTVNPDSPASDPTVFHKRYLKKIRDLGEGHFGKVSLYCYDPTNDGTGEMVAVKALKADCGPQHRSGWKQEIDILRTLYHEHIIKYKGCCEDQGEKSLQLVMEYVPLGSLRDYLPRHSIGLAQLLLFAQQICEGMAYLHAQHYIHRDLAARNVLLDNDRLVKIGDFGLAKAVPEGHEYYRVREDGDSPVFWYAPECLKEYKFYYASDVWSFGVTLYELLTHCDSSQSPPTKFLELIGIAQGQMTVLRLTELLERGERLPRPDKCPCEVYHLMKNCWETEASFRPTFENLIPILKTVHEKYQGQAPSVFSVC
# protocol.details: TYK2 (TYK2/JAK2 PSTAT4 T-BLAST) Alpha Screen Assay
# Experimental: IL-12 is known to transduce its signal through IL-12 receptor via Jak2 and/or Tyk2. For that reason, the activity against Tyk2/Jak2 was measured by determining the inhibition of IL-12 induced phosphorylation of STAT4 in T-blast cells. […] See, e.g., Sohn et al., J. Immunology (2013) 2205-2216.
measurement.kind: pEC50
// scale note: pEC50 = -log10(conc_M); give the bare number

These solved cases illustrate the format of a correct answer.
CO[C@@]1(c2cc(C#N)cc(-c3cn([C@H]4CC4(F)F)c4cnc(NC(C)=O)cc34)n2)CCOC1; 5.80
CO[C@@]1(c2cc(C(F)F)cc(-c3cn(C4COC4)c4cnc(NC(C)=O)cc34)n2)CCOC1; 6.76
CO[C@@]1(c2cc(C(F)F)cc(-c3cn([C@@H]4CCOC4)c4cnc(NC(N)=O)cc34)n2)CCOC1 [US20190276450, Example 12b.2]; 7.82
CO[C@@]1(c2cc(OC(F)F)cc(-c3cn(C)c4cnc(NC(C)=O)cc34)n2)CCOC1; 7.05
COCCOc1cc(-c2cn(C)c3cnc(NC(C)=O)cc23)nc([C@@]2(CO)CCOC2)c1; 5.88

Lookup: Identify the measured pEC50 of `CO[C@@]1(c2cc(OC[C@H](C)O)cc(-c3cn(C)c4cnc(NC(C)=O)cc34)n2)CCOC1` for Non-receptor tyrosine-protein kinase TYK2 (Homo sapiens, UniProt P29597).
Found: 6.84

---

Recorded EC50 values for a group of molecules are listed next.
# measurement.target: UniProt:P23458
# protocol.details: JAK1 (PSTAT3 TF1) Alpha Screen Assay
Please state the figure in µM; there is no need to write the unit.

CO[C@@]1(c2cc(O[C@@H](C)CCO)cc(-c3cn(C)c4cnc(NC(C)=O)cc34)n2)CCOC1; 63
CC(=O)Nc1cc2c(-c3cccc([C@]4(CO)CCOC4)n3)cn(C)c2cn1; 2.8

Lookup: # lookup: EC50 of `CO[C@@]1(c2cc(C(F)F)cc(-c3cn(C)c4cnc(NC(N)=O)cc34)n2)CCOC1`
Found: 20

Lookup: # lookup: EC50 of `COCc1cc(-c2cn(C)c3cnc(NC(N)=O)cc23)nc([C@]2(OC)CCOC2)c1`
Found: 18

Lookup: # lookup: EC50 of `CO[C@@]1(c2cccc(-c3cn([C@H]4C[C@H](C#N)C4)c4cnc(NC(C)=O)cc34)n2)CCOC1`
Found: 27

Lookup: # lookup: EC50 of `CO[C@@]1(c2cccc(-c3cn(C)c4cnc(NC(N)=O)cc34)n2)CCOC1`
Found: 5.45

Lookup: # lookup: EC50 of `CO[C@@]1(c2cc(OC(F)F)cc(-c3cn(C)c4cnc(NC(C)=O)cc34)n2)CCOC1`
Found: 35

---

# measurement.target: Tyrosine-protein kinase JAK1 (Homo sapiens, UniProt P23458)
# protocol.details: JAK1 (PSTAT3 TF1) Alpha Screen Assay
measurement.kind: pEC50
// scale note: pEC50 = -log10(conc_M); give the bare number

These solved cases illustrate the format of a correct answer.
CO[C@@]1(c2cc(C(F)F)cc(-c3cn([C@H]4C[C@H](C#N)C4)c4cnc(NC(C)=O)cc34)n2)CCOC1 [US20190276450, Example 17.2]; 4.46
CO[C@@]1(c2cc(OCC[C@@H](C)O)cc(-c3cn(C)c4cnc(NC(C)=O)cc34)n2)CCOC1 [US20190276450, Example 7]; 4.47

Lookup: # lookup: pEC50 of CO[C@@]1(c2cc(OC[C@H](C)O)cc(-c3cn(C)c4cnc(NC(C)=O)cc34)n2)CCOC1 [US20190276450, Example 14.5]
Found: 4.15

Lookup: # lookup: pEC50 of COC1(c2cccc(-c3cn(C)c4cnc(NC(N)=O)cc34)n2)COC1 [US20190276450, Example 1b.4]
Found: 5.12

Lookup: # lookup: pEC50 of CO[C@@]1(c2cncc(-c3cn(C)c4cnc(NC(N)=O)cc34)n2)CCOC1 [US20190276450, Example 12]
Found: 4.79

Lookup: # lookup: pEC50 of CO[C@@]1(c2cc(OC3COC3)cc(-c3cn(C)c4cnc(NC(C)=O)cc34)n2)CCOC1 [US20190276450, Example 8]
Found: 4.66

---

# measurement.target: Non-receptor tyrosine-protein kinase TYK2 (Homo sapiens, UniProt P29597)
# protocol.details: TYK2 (TYK2/JAK2 PSTAT4 T-BLAST) Alpha Screen Assay
# Description: IL-12 is known to transduce its signal through IL-12 receptor via Jak2 and/or Tyk2. For that reason, the activity against Tyk2/Jak2 was measured by determining the inhibition of IL-12 induced phosphorylation of STAT4 in T-blast cells. […] See, e.g., Sohn et al., J. Immunology (2013) 2205-2216.
measurement.kind: pEC50
// scale note: pEC50 = -log10(conc_M); give the bare number

CO[C@@]1(c2cc(C(F)F)cc(-c3cn(C)c4cnc(NC(N)=O)cc34)n2)CCOC1; 7.66

Lookup: Identify the measured pEC50 of COc1cc(-c2cn(C)c3cnc(NC(C)=O)cc23)nc([C@@]2(OC)CCOC2)c1 [US20190276450, Example 20a] for Non-receptor tyrosine-protein kinase TYK2 (Homo sapiens, UniProt P29597).
Found: 6.04

Lookup: Identify the measured pEC50 of `CO[C@@]1(c2cccc(-c3cn([C@H]4CC4(F)F)c4cnc(NC(N)=O)cc34)n2)CCOC1` for Non-receptor tyrosine-protein kinase TYK2 (Homo sapiens, UniProt P29597).
Found: 5.69

Lookup: Identify the measured pEC50 of `CO[C@@]1(c2cc(OC[C@@H](C)O)cc(-c3cn(C)c4cnc(NC(C)=O)cc34)n2)CCOC1` for Non-receptor tyrosine-protein kinase TYK2 (Homo sapiens, UniProt P29597).
Found: 7.06

Lookup: Identify the measured pEC50 of `COc1cc(-c2cn(C)c3cnc(NC(N)=O)cc23)nc([C@@]2(OC)CCOC2)c1` for Non-receptor tyrosine-protein kinase TYK2 (Homo sapiens, UniProt P29597).
Found: 6.73

Lookup: Identify the measured pEC50 of `CC[C@]1(c2cc(C#N)cc(-c3cn(C)c4cnc(NC(C)=O)cc34)n2)CCOC1` for Non-receptor tyrosine-protein kinase TYK2 (Homo sapiens, UniProt P29597).
Found: 6.98

Lookup: Identify the measured pEC50 of `CO[C@]1(c2cc(C(F)F)cc(-c3cn(C4COC4)c4cnc(NC(C)=O)cc34)n2)CCOC1` for Non-receptor tyrosine-protein kinase TYK2 (Homo sapiens, UniProt P29597).
Found: 6.21

Lookup: Identify the measured pEC50 of CO[C@@]1(c2cccc(-c3cn([C@H]4C[C@@H](C#N)C4)c4cnc(NC(C)=O)cc34)n2)CCOC1 [US20190276450, Example 17a] for Non-receptor tyrosine-protein kinase TYK2 (Homo sapiens, UniProt P29597).
Found: 6.32

Lookup: Identify the measured pEC50 of `CO[C@@]1(c2cc(O[C@@H](C)CCO)cc(-c3cn(C)c4cnc(NC(C)=O)cc34)n2)CCOC1` for Non-receptor tyrosine-protein kinase TYK2 (Homo sapiens, UniProt P29597).
Found: 6.87

Lookup: Identify the measured pEC50 of `CO[C@H](C)COc1cc(-c2cn(C)c3cnc(NC(C)=O)cc23)nc([C@]2(OC)CCOC2)c1` for Non-receptor tyrosine-protein kinase TYK2 (Homo sapiens, UniProt P29597).
Found: 7.04

Lookup: Identify the measured pEC50 of `CO[C@@]1(c2cc(C#N)cc(-c3cn([C@@H]4CC4(F)F)c4cnc(NC(C)=O)cc34)n2)CCOC1` for Non-receptor tyrosine-protein kinase TYK2 (Homo sapiens, UniProt P29597).
Found: 6.90

Lookup: Identify the measured pEC50 of `CO[C@@]1(c2cc(OCC3COC3)cc(-c3cn(C)c4cnc(NC(C)=O)cc34)n2)CCOC1` for Non-receptor tyrosine-protein kinase TYK2 (Homo sapiens, UniProt P29597).
Found: 7.30

Lookup: Identify the measured pEC50 of `COCc1cc(-c2cn(C3COC3)c3cnc(NC(C)=O)cc23)nc([C@]2(OC)CCOC2)c1` for Non-receptor tyrosine-protein kinase TYK2 (Homo sapiens, UniProt P29597).
Found: 6.86
